tested on: GST-tagged Cn; test: PEPperPRINT peptide microarray binding assay with GST-tagged Cn; conditions: max over the chip locations listed for the peptide (two spots)
Each entry below lists one item and its recorded Chip Fluorescence (max) value.
The answer should be written as a number, with no unit following it.

Monomer Sequence	Result Value
DSLEGATIVITLTEGK [SeqRBM_8933]	3.74
SNSTNPEITITPAELC [SeqRIPOR2_Tarsius_syrichta]	7.538
GGPGTPTRQGQHLAPG [SeqRBMlowT_9846]	21.0979
QRFFCVRYDVNPCINW [Seqrandom_9944]	3.709
GTETTPSVVVHVCEDD [SeqRBMlowT_112]	4.01

Prompt: Please give the measured Chip Fluorescence (max) for this sequence: RNPGQPLLELEGHSAP [SeqRBMlowT_7742]
Completion: 5.135

Prompt: Next up: TFWTNPQYRMVLDEDD [SeqRBM_7411]
Completion: 5.3741

Prompt: What do you get for GTETTPSIVVHVCEDD [SeqRBMlowT_128] ?
Completion: 4.964

Prompt: Again, but for RKDSAVTQWGFSNLWA [Seqrandom_9950]
Completion: 4.744

---

System: GST-tagged Cn
Assay: PEPperPRINT peptide microarray binding assay with GST-tagged Cn
Conditions: GST-tagged Cn, max over the spots named in Location on chip
Description: We then estimated in-silico the binding strength of the various peptides to Cn by template-based docking followed by flexible backbone refinement using Modeller and PepCrawler (Figs 4 and S4). […] Fig 4 Medium-throughput filtering by structural modeling and microarray screening. […] (f) Scatter plot of the sequence likelihood (normalized by length, higher is better) against fluorescence level (higher is better, see Methods for details of the data analysis). […]
# Chip Fluorescence (max) values compiled below
Keep the answer to the number alone.

Monomer Sequence	Chip Fluorescence (max)
MRRERSNRAMFKVNQH [Seqrandom_9977]	1.743
RAYMNPFMTFIDGGHR [SeqRBMlowT_1518]	1.378
SAGAGVGIVITVTEAE [SeqRBMlowT_164]	1.523

Prompt: Could you share what Chip Fluorescence (max) was measured for LKKTYLRREMHGCYNH [Seqrandom_9958] , tested on GST-tagged Cn?
Completion: 1.4154

Prompt: What about this sequence? PGLYENALGMESFSIS [SeqCRZ1_Ajellomyces_capsulatus]
Completion: 1.795

---

# Chip Fluorescence (mean) per record follows
system: GST-tagged Cn; assay: PEPperPRINT peptide microarray binding assay with GST-tagged Cn; conditions: GST-tagged Cn, mean over the spots on the chip (two locations)

Monomer Sequence	Result Value
SYLPIIQVRMTDTGEY [SeqRBM_6285]	0.3431

Prompt: Looking for the measured Chip Fluorescence (mean) of RQPGTALLELGGHKKQ [SeqRBMlowT_7758] , can you help?
Completion: 0.136

Prompt: Now the sequence PGLYDNALGMESFTLS [SeqRBMlowT_2805]
Completion: 0.8541

Prompt: Please answer likewise for AKDDPPKIQVHPPEED [SeqRBMlowT_9786]
Completion: -0.565

Prompt: Now consider TFWTNPQYKVKLEEED [SeqRBMlowT_252] and answer again.
Completion: 0.727

Prompt: LHPTCDPFRCSTHQSH [Seqshuffled_9610] ?
Completion: 0.008632

Prompt: What do you have for VSTDAPHSTRNDSGGP [SeqRBM_8532] ?
Completion: -0.732

---

Quick reference: Chip Fluorescence (mean) of the listed items.
tested on: GST-tagged Cn; experiment: PEPperPRINT peptide microarray binding assay with GST-tagged Cn; conditions: GST-tagged Cn, mean over the duplicate spots (Location on chip)
Provide a numeric answer; units are not to be included.

See these solved cases before continuing.
Monomer Sequence	Chip Fluorescence (mean)
TFNNNPQATVRRTDID [SeqRBM_1961]	0.6511
TFWTNPQYKITLEDED [SeqRBMlowT_7336]	1.363
WPWCRHPKKRNWLNWH [Seqrandom_9939]	1.3152
AEVGIVRFSRHPVAQD [Seqshuffled_9961]	0.06577
TFWSNPQFRLKLEDPD [SeqRBMlowT_6883]	1.226

Prompt: Give the reported Chip Fluorescence (mean) for GTDLRQQTAAQPNDGA [Seqshuffled_4362] (system: GST-tagged Cn).
Completion: 0.6141

Prompt: Queued: KELANLRVTPPDNGTL [SeqRBM_2710]
Completion: 0.2344

Prompt: Also check RQPGSPVLELSGHSAN [SeqRBMlowT_5862]
Completion: 0.5615

Prompt: Also need KAYMNPFMQFIDGGRK [SeqRBMlowT_6686] , thanks.
Completion: 0.8271

Prompt: Same lookup for HCRFEWPFGFSMIRYP [Seqrandom_9994] , please.
Completion: -1.666

---

tested on: GST-tagged Cn; assay: PEPperPRINT peptide microarray binding assay with GST-tagged Cn; settings: GST-tagged Cn, mean over the spots named in Location on chip
Answer not fulfilled if Chip Fluorescence (mean) is under -0.4, and fulfilled if it is -0.4 or more.

Look over these answered cases.
Monomer Sequence	Cat
STSGTFPQTESSHKKQ [SeqRBMlowT_5831]	fulfilled
RQPGQALLTLRGHSAP [SeqRBMlowT_5806]	fulfilled
KAYMCPAVSFQDGGRR [SeqRBMlowT_4017]	fulfilled

Read the next record carefully.
Prompt: Please check the record PQMAPPAINIDFAPTN [SeqRBMlowT_2475] and state if its Chip Fluorescence (mean) is at or above -0.4.
Completion: fulfilled

---

system: GST-tagged Cn; experiment: PEPperPRINT peptide microarray binding assay with GST-tagged Cn; details: GST-tagged Cn, max over the chip spots listed under Location on chip
Measure Name: Chip Fluorescence (max)

// known answers, use as guide
Monomer Sequence	Target Or System	Measure Name	Result Value
LKDEVPEVRLNIISNL [SeqRCN1_Ramazzottius_varieornatus]	GST-tagged Cn	Chip Fluorescence (max)	0.4089
LKDEFSDVRLNIISNL [SeqRBMlowT_1878]	GST-tagged Cn	Chip Fluorescence (max)	0.7069
KAYMCPFMQFIEGGRR [SeqSFB3_Pan_troglodytes]	GST-tagged Cn	Chip Fluorescence (max)	0.9778
TFWTNPQFVVSLPEPD [SeqRBMlowT_3270]	GST-tagged Cn	Chip Fluorescence (max)	0.9379
TFWTNPQFRVKLEEPD [SeqRBMlowT_201]	GST-tagged Cn	Chip Fluorescence (max)	0.5145

Prompt: Look up Chip Fluorescence (max): TFWTNPQYVITVTDPD [SeqRBMlowT_3207]
Completion: 0.3855

---

test system: GST-tagged Cn; test: PEPperPRINT peptide microarray binding assay with GST-tagged Cn; conditions: GST-tagged Cn, mean over the spots named in Location on chip
Measure Name: Chip Fluorescence (mean)
A bare number is all that is needed in reply.

Monomer Sequence	Chip Fluorescence (mean)
VFWANPQFEVTLREDD [SeqRBM_5060]	0.03485

Next item in the queue.
Prompt: # get_value(readout= Chip Fluorescence (mean), system= GST-tagged Cn) for TFWDNPQYQIKLNDPD [SeqRBM_8698]
Completion: -0.1207

---

Recorded Chip Fluorescence (max), one value per entry.
Tested on: GST-tagged Cn
Experiment: PEPperPRINT peptide microarray binding assay with GST-tagged Cn
Settings: GST-tagged Cn, max over the chip spots listed under Location on chip
Description: We then estimated in-silico the binding strength of the various peptides to Cn by template-based docking followed by flexible backbone refinement using Modeller and PepCrawler (Figs 4 and S4). […] Fig 4 Medium-throughput filtering by structural modeling and microarray screening. […] (f) Scatter plot of the sequence likelihood (normalized by length, higher is better) against fluorescence level (higher is better, see Methods for details of the data analysis). […]
Answer with a number only.

Recorded Chip Fluorescence (max), per entry:
Monomer Sequence	Target Or System	Chip Fluorescence (max)
MTPAAPIVRLHIPSSV [SeqRBM_8521]	GST-tagged Cn	0.4752
RAYINPFMQFIDGGRF [SeqRBMlowT_3663]	GST-tagged Cn	0.6841
RNPGQALLTLRGHKAS [SeqRBMlowT_7787]	GST-tagged Cn	0.3829
TFWTNPQYKIKLEDPD [SeqRBMlowT_629]	GST-tagged Cn	0.8637
HVSSSPDVTLKIPQHR [SeqRBMlowT_2187]	GST-tagged Cn	0.8915
PSPDQPGIVVHTCEDD [SeqRBMlowT_9795]	GST-tagged Cn	0.973

Prompt: What Chip Fluorescence (max) value was documented for this sequence, PQLYQNVLGIGSFSLS [SeqRBMlowT_4804] ?
Completion: 0.4517

---

system: GST-tagged Cn; experiment: PEPperPRINT peptide microarray binding assay with GST-tagged Cn; conditions: GST-tagged Cn, mean over the spots named in Location on chip
Measure Name: Chip Fluorescence (mean)
Lab note: jot down the number only; don't add units.

Solved entries (count: 5):
Monomer Sequence	Result Value
KAYMCPYMQFIDGGRK [SeqRBMlowT_9280]	1.063
TFWMNPQYKIKLEEPD [SeqRBMlowT_4687]	0.005772
STSSLPTFSFSSPLST [SeqRBMlowT_892]	-0.8669
SSEYQESLCIENFSAN [SeqRBM_3304]	0.6423
GASMCPAMSWQDCGQR [SeqSFB3_Iconisemion_striatum]	0.3571

Query sequence follows.
Prompt: Give GST-tagged Cn Chip Fluorescence (mean) for LNLKIPTIAKADITAT [SeqRBM_4458]
Completion: -0.3422
